Protocol Notes: ATG_PPRE_CIS: Attagene CIS-FACTORIAL HepG2 Assay for human Peroxisome Proliferator-activated Response Element (PPRE) (AID 2282958)
Experimental Conditions: HepG2 PPRE cis-element reporter, Attagene transcription factor profiling; actives raise or lower the signal
Active and inactive are the calls of the source. Rule for the calls: active = hit-call score of the fitted dose curve at least 0.9, where 1 is the maximum; inactive = score below 0.9.
One label from this list, please: active, inactive

These solved cases illustrate the format of a correct answer.
CC1=CC(=O)/C(=C(/C)O)C(=O)O1; inactive
CC(=O)N1CCN(c2ccc(OC[C@H]3CO[C@](Cn4ccnc4)(c4ccc(Cl)cc4Cl)O3)cc2)CC1; inactive
CCCCCCCCCCCCO; inactive
C[C@]12CC[C@@H]3c4ccc(O)cc4CC[C@H]3[C@@H]1CC[C@H]2O; inactive
CCCCCCCCOc1ccc(C(=O)c2ccccc2)c(O)c1; inactive
c1ccc2ccccc2c1; inactive

stdin: Field: outcome | Entry: CN1C(=O)N(c2ccccc2Br)Cc2cnc(Nc3ccc4c(c3)OCC(CO)O4)nc21 (configuration not stated)
stdout: active

====

Protocol Notes: ATG_ISRE_CIS: Attagene CIS-FACTORIAL HepG2 Assay for human Interferon Regulatory Factor 1 (IRF1) binding to an Interferon-Stimulated Response Element (ISRE) (AID 2282948)
Experimental Conditions: HepG2 ISRE cis-reporter (Attagene), mRNA transcription readout; actives raise or lower the signal
The source made the active and inactive calls. How the source made its calls: active means hit-call score of the fitted dose curve at least 0.9, where 1 is the maximum; inactive means score below 0.9.
One label from this list, please: active, inactive

These solved cases illustrate the format of a correct answer.
CCOC(=O)O[C@H](C)OC(=O)c1ccc2c(c1)cc(C(=O)NC1CCN(C(C)C)CC1)n2Cc1cc(-c2ccc(Cl)s2)on1; inactive
CO[C@H]1/C=C/O[C@@]2(C)Oc3c(C)c(O)c4c(O)c(c(/C=N/N5CCN(C)CC5)c(O)c4c3C2=O)NC(=O)/C(C)=C\C=C\[C@H](C)[C@H](O)[C@@H](C)[C@@H](O)[C@@H](C)[C@H](OC(C)=O)[C@@H]1C; inactive

Could you now consider this next molecule?
stdin: Field: outcome | Entry: CC1=CC(=O)/C(=C(/C)O)C(=O)O1
stdout: inactive

====

Read-out: ATP-citrate lyase (ACLY), ACLY (gene 47)
Protocol Notes: LTEA_HepaRG_ACLY: Life Technologies and Expression Analysis (LTEA) Assay for ATP-citrate lyase (ACLY) using HepaRG (AID 2283466)
Experimental Conditions: mRNA level, 48 h; actives raise or lower the signal
Active and inactive are the calls of the source. How the source made its calls: active means hit-call score of the fitted dose curve at least 0.9, where 1 is the maximum; inactive means score below 0.9.
One label from this list, please: 1 (active), -1 (inactive)

CCCCCCCCCC(=O)O; -1
CC(=O)N1CCN(c2ccc(OC[C@H]3CO[C@](Cn4ccnc4)(c4ccc(Cl)cc4Cl)O3)cc2)CC1; 1

stdin: Field: outcome | Entry: CN(C)c1ccc(C(=C2C=CC(=[N+](C)C)C=C2)c2ccc(N(C)C)cc2)cc1
stdout: 1

stdin: Field: outcome | Entry: Cc1cc2c(cc1C(F)(F)F)N(C(=O)Nc1ccc(Oc3cccnc3C)nc1)CC2
stdout: -1

stdin: Field: outcome | Entry: c1ccc(C[n+]2cccc3ccccc32)cc1
stdout: -1

stdin: Field: outcome | Entry: C[C@]12CC[C@@H]3c4ccc(O)cc4CC[C@H]3[C@@H]1CCC2=O
stdout: -1

stdin: Field: outcome | Entry: Oc1ccc2ccccc2c1
stdout: -1

stdin: Field: outcome | Entry: CN(C[C@@H](CC[N+]12CCC(C3CCCCC3)(CC1)CC2)c1ccc(Cl)c(Cl)c1)C(=O)c1cc(C(F)(F)F)cc(C(F)(F)F)c1
stdout: -1

stdin: Field: outcome | Entry: CC(O)CC(C)(C)O (configuration not stated)
stdout: -1

stdin: Field: outcome | Entry: O=C(OCCCCCCOC(=O)c1ccccc1)c1ccccc1
stdout: -1

stdin: Field: outcome | Entry: Oc1ccccc1
stdout: -1

stdin: Field: outcome | Entry: COCC(C)OCC(C)OCC(C)O (configuration not stated)
stdout: -1

stdin: Field: outcome | Entry: CCCCCCCCN(C)CCCCCCCC
stdout: -1

stdin: Field: outcome | Entry: CC1(C)NC(=O)N(c2ccc([N+](=O)[O-])c(C(F)(F)F)c2)C1=O
stdout: 1

stdin: Field: outcome | Entry: CCN(Cc1cccc(S(=O)(=O)O)c1)c1ccc(C(=C2C=CC(=[N+](CC)Cc3cccc(S(=O)(=O)O)c3)C=C2)c2ccccc2S(=O)(=O)[O-])cc1
stdout: -1

stdin: Field: outcome | Entry: COc1cc(C(=O)NC2CCN(C)CC2)ccc1Nc1ncc2c(n1)N(C1CCCC1)CC(F)(F)C(=O)N2C
stdout: 1

stdin: Field: outcome | Entry: CC[C@H](NC(=O)c1cc(F)ccc1NS(=O)(=O)c1cccc2cccnc12)c1ccccc1
stdout: -1

stdin: Field: outcome | Entry: CCCCCc1ccc(N)cc1
stdout: -1

stdin: Field: outcome | Entry: O=C1CCC(C2CCCCC2)CC1
stdout: -1

stdin: Field: outcome | Entry: COc1ccc2cc(S(=O)(=O)N[C@H](CC(=O)N[C@H](Cc3ccc(CN4[C@H](C)CCC[C@@H]4C)cc3)C(=O)N(C)C(C)C)c3ccc4c(c3)OCO4)ccc2c1
stdout: -1
